System: Fibroblast growth factor receptor 3 (Homo sapiens)
Sequence (P22607 whole entry): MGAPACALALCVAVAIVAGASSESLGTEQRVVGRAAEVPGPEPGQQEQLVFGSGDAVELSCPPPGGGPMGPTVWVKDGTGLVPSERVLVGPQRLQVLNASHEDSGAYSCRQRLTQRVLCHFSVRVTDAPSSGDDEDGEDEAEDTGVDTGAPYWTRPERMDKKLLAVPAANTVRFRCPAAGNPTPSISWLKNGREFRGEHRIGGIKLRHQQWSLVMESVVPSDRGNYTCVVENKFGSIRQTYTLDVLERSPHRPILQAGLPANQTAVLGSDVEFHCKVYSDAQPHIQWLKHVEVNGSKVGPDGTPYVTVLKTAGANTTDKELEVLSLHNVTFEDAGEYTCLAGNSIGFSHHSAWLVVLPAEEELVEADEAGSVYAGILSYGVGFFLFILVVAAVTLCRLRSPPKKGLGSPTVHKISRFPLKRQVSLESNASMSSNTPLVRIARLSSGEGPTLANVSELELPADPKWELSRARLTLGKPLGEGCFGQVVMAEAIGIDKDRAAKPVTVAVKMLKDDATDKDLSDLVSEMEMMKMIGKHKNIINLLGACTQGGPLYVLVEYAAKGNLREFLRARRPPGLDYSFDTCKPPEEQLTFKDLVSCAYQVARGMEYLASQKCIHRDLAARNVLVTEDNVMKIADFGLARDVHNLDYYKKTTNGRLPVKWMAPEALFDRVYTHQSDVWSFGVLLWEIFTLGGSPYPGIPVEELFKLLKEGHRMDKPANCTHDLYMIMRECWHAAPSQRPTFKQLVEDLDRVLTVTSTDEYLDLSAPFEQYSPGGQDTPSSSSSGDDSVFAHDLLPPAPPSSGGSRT
pIC50: −log10 of the molar value.
Measured quantity: pIC50

Data request, read-out pIC50, for `CCNS(=O)(=O)c1ccccc1Nc1nc(Nc2ccc(N3CCC(N4CCN(C)CC4)CC3)c(OC)c2)ncc1Cc1cc(OC)cc(OC)c1`
< 6.00

Reference for the values: ChEMBL document CHEMBL4627366
